System: MOLT-4 leukemia
Measurement Notes: NCI tumour cell line growth inhibition, 48 h
Result Type: TGI (µM)
Give the number; µM is assumed, so skip it.

The following compounds have reported results that may help.
1. CC1=C(C(=O)OCCc2ccc([N+](=O)[O-])cc2)C(c2ccccc2[N+](=O)[O-])C(C(=O)OC(C)C)=C(C)N1 (stereo not drawn) | 9.93
2. CN(C)C[C@H]1CC[C@@H](CN(C)C)C1=O | 4.69
3. COc1ccc(/C(C)=C(\c2ccc(Cl)cc2)c2ccc(OCCN3CCCC3)cc2)cc1 | 10.9
4. Nc1ccc(-c2nc3ccc4[nH]ncc4c3c3c2CCCC3)cc1F | 5.82
5. C[Si](C)(C)/C=C/CCC(C=O)(CCCl)c1ccccc1 (stereo not drawn) | 53.8

Ask | Which value of TGI has been reported for CCC1(CC)C(=O)CC[C@@]2(C)C1=CC[C@H]1[C@@H]3CC[C@H](O)[C@@]3(C)CC[C@@H]12 in the records?
Reply | 54.8

Ask | Also, COc1ccc(-c2nn(-c3cccc(Cl)c3)cc2C=C(C#N)C#N)cc1 please.
Reply | 6.12

Ask | Repeat for the following compound: CC(=O)/C=C/C=C(\C)CC/C=C(\C)CC(C)C
Reply | 41.9

Ask | Same read-out for CCC1C(C)c2c([nH]c3ccccc23)C2C(=O)N(c3ccccc3)C(=O)C21 (stereo not drawn) ?
Reply | 49.3

Ask | Now consider CC(=O)Oc1ccc(OC(C)=O)c2ccccc12 and answer again.
Reply | 8.38

---

Readings of GI50 for the listed molecules
Test system: SF-539 CNS
Measurement Notes: NCI tumour cell line growth inhibition, 48 h

Previously resolved entries follow.
1. COC(=O)C[CH](C(=O)OC)[Ge]([CH3])([CH3])[S]c1ccccc1 (centres undefined) | 22100 nM
2. O=C(NCc1cccnc1)/C(=C\c1ccc(Br)cc1)S(=O)(=O)c1ccccc1 | 663 nM
3. Cc1ccc(Cl)cc1Nc1nc(C(F)(F)F)ccc1C(=O)Nc1cccc(C(F)(F)F)c1 | 3950 nM

Ask | I am curious: what GI50 value has been reported for COc1ccc(-c2nn(-c3cccc(Cl)c3)cc2C=C(C#N)C#N)cc1 ?
Reply | 2300 nM

Ask | Okay, and CN1/C(=C\C(I)C(I)C2=[N+](C)c3ccccc3C2(C)C)C(C)(C)c2ccccc21 (centres undefined) ?
Reply | 783 nM

Ask | Next molecule up: C=C1CCC2C3(C)COC(c4ccc(NC(C)=O)cc4)OC3CCC2(C)C1C/C=C1/C(=O)OCC1O (centres undefined)
Reply | > 100000 nM

Ask | Please give the result for CCOC(=O)c1sc(-c2ccc(OS(=O)(=O)c3cccs3)c(C=O)c2)nc1C too.
Reply | 1820 nM

Ask | Okay, and CC[C@@]1(O)C(=O)NCc2c1cc1n(c2=O)Cc2cc3ccccc3nc2-1 ?
Reply | 1710 nM

Ask | Another molecule to check: Cl.[Pt].[c-]1ccccc1-c1ccccn1.c1ccc(P(c2ccccc2)C([PH+](c2ccccc2)c2ccccc2)[PH+](c2ccccc2)c2ccccc2)cc1
Reply | 1540 nM

---

TGI overview
Tested on: SW-620 colon
Measurement Notes: NCI tumour cell line growth inhibition, 48 h

Would you please look over these solved cases?
1) Nc1ncnc2c1c(C(F)(F)F)cn2[C@@H]1O[C@H](CO)[C@@H](O)[C@H]1O | > 100 µM
2) CCOC(=O)c1ccc(C(=O)C(C(C)=O)C(=O)OC(C)(C)C)n1C (centres undefined) | > 100 µM
3) Nc1[nH]c(=O)ncc1F | > 100 µM

Ask | # get_value(readout='TGI', item= O=C1NC(=S)N/C1=C/c1ccccc1O )
Reply | > 100 µM

Ask | Nc1nc(Cl)cc(N=Nc2ccccc2)n1 , same question.
Reply | > 100 µM

Ask | Would you mind doing COc1cccc(NC(=O)CSc2nnc(-c3ccc(N=Cc4ccc(Cl)cc4)cc3)o2)c1 as well?
Reply | 37.9 µM

Ask | Param item: COc1ccc(-c2ccc3c(NC(=O)C4CC4)n[nH]c3n2)cc1
Reply | > 25 µM

Ask | What about COc1ccc(-c2ccc(/C=C/C(=O)NO)cc2)cc1 ?
Reply | > 100 µM

Ask | Would you kindly repeat that for COc1cc(C)c(C(=O)O[C@H]2[C@H](O[C@H]3[C@@H](O)COC(O[C@H]4C[C@H]5[C@@H]6CC=C7C[C@@H](O)CC[C@]7(C)[C@H]6CC[C@]5(C)[C@H]4[C@H](C)C(=O)CCC(C)C)[C@@H]3OC(C)=O)OC[C@@H](O)[C@@H]2O)c(C)c1 (some centres undefined) ?
Reply | 0.183 µM

src = PubChem BioAssay (NCI)
